system: HeLa; assay: Cytotoxicity against human HeLa cells by MTT assay; type: functional, cell-based
Listed here are compounds together with their documented IC50.

{"compound structure string": "CC1=NNC(=O)/C1=C/c1c(-c2ccccc2)[nH]c2ccc(Cl)cc12", "tested system": "HeLa", "unit annotation": "nM", "sign": "=", "IC50": 2100}
{"compound structure string": "Cc1ccc2[nH]c(-c3ccccc3)c(C=C3C(=O)NC(=S)NC3=O)c2c1", "tested system": "HeLa", "unit annotation": "nM", "sign": ">", "IC50": 100000}
{"compound structure string": "COc1cccc2c1C(=O)c1c(O)c3c(c(O)c1C2=O)C[C@@](O)(C(=O)CO)C[C@@H]3O[C@H]1C[C@H](N)[C@H](O)[C@H](C)O1", "tested system": "HeLa", "unit annotation": "nM", "sign": "=", "IC50": 710}
{"compound structure string": "CC1=NNC(=O)/C1=C/c1c(-c2ccccc2)[nH]c2ccc(C)cc12", "tested system": "HeLa", "unit annotation": "nM", "sign": ">", "IC50": 100000}
